The origin of these recorded values is BigSolDB 2.1.

conditions: in acetone, 313.15 K
attribute.measured: solubility (mole fraction)
API doc: respond with a numeric literal and nothing else, no unit.

Q. Which solubility (mole fraction) value belongs to O=C(O)CNCc1ccccc1 ?
A. 0.000165

----------
settings: in n-propanol, 293.15 K
attribute.measured: solubility (mole fraction)
Please state the value as a number alone, without comment.

Q. Returns the measured solubility (mole fraction) for the input compound. Input: O=C(O)CNCc1ccccc1
A. 0.000266

----------
settings: in n-propanol, 283.15 K
attribute.measured: solubility (mole fraction)
In your answer, state the number alone without any accompanying words.

Q. Could you share which solubility (mole fraction) value was measured for O=C(O)CNCc1ccccc1 ?
A. 0.000214

----------
conditions: in dichloromethane, 298.15 K
attribute.measured: solubility (mole fraction)
A bare number is all that is needed in reply.

Q. Request the reported solubility (mole fraction) associated with O=C(O)CNCc1ccccc1
A. 4.2e-05

----------
conditions: in isopropanol, 303.15 K
attribute.measured: solubility (mole fraction)
// response body must contain only the number

Q. May I ask what solubility (mole fraction) has been recorded for O=C(O)CNCc1ccccc1 ?
A. 9.6e-05

----------
conditions: in dichloromethane, 293.15 K
attribute.measured: solubility (mole fraction)
Answer with a bare number; do not write a unit.

Q. I would be grateful if you could share the reported solubility (mole fraction) for O=C(O)CNCc1ccccc1 .
A. 3.4e-05

----------
conditions: in dichloromethane, 288.15 K
attribute.measured: solubility (mole fraction)
Lab note: record the figure alone, no unit after it.

Q. For the compound O=C(O)CNCc1ccccc1 , what solubility (mole fraction) is on record?
A. 2.1e-05

----------
conditions: in water, 293.15 K
attribute.measured: solubility (mole fraction)
Please reply with the number alone, leaving off any unit.

Q. Reported solubility (mole fraction) for O=C(O)CNCc1ccccc1 : what is it?
A. 0.0113

----------
settings: in ethyl acetate, 293.15 K
attribute.measured: solubility (mole fraction)
Lab note: write the figure by itself, no unit.

Q. Which solubility (mole fraction) value belongs to O=C(O)CNCc1ccccc1 ?
A. 3.3e-05

----------
details: in 1,4-dioxane, 293.15 K
attribute.measured: solubility (mole fraction)

Q. Sample O=C(O)CNCc1ccccc1 — what was its solubility (mole fraction)?
A. 5.5e-05

----------
conditions: in n-propanol, 313.15 K
attribute.measured: solubility (mole fraction)
In your answer, state the number alone without any accompanying words.

Q. # solubility (mole fraction) lookup, item O=C(O)CNCc1ccccc1
A. 0.00037

----------
details: in n-propanol, 303.15 K
attribute.measured: solubility (mole fraction)
Answer field: number only, no words.

Q. Give the measured solubility (mole fraction) of O=C(O)CNCc1ccccc1 .
A. 0.000306

----------
settings: in dichloromethane, 303.15 K
attribute.measured: solubility (mole fraction)
Reply: number alone, nothing else.

Q. Name the recorded solubility (mole fraction) for O=C(O)CNCc1ccccc1 .
A. 5.7e-05

----------
conditions: in methanol, 313.15 K
attribute.measured: solubility (mole fraction)
Note: the reply should be a number with no unit written.

Q. Using the record for O=C(O)CNCc1ccccc1 , report its solubility (mole fraction).
A. 0.00416

----------
conditions: in ethanol, 293.15 K
attribute.measured: solubility (mole fraction)
Answer as a number with no unit attached.

Q. Any idea what its solubility (mole fraction) is? The compound is O=C(O)CNCc1ccccc1
A. 0.000326

----------
details: in ethyl acetate, 313.15 K
attribute.measured: solubility (mole fraction)
Please respond with just the number, no unit label.

Q. Which measured solubility (mole fraction) value corresponds to O=C(O)CNCc1ccccc1 ?
A. 0.000102
